Assay: A CellTox Green Cytotoxicity Assay to monitor cytotoxicity in HepG2 cells - 32 hour (AID 1224883); further: nearly all actives have a fitted effect of over 50% in size
Conditions: CellTox Green fluorescence; series mostly up to 76.8 µM
Source text: National Center for Advancing Translational Sciences [NCATS] NIH Chemical Genomics Center [NCGC] U.S. Environmental Protection Agency [EPA] National Institutes of Environmental Health Sciences [NIEHS] National Toxicology Program [NTP] Cell-based models are critical for drug discovery. […] Viable cells produce no appreciable increases in fluorescence. Therefore, the fluorescence signal produced by the binding interaction with dead cell DNA is proportional to cytotoxicity. […]
Records with an inconclusive call do not appear. Active and inactive are the calls of the source. The call rests on the fitted dose curve; in most records, active means well fitted activation curve with a large enough effect in the repeat runs; inconclusive means weak or mixed curves; inactive means flat fitted curve, though single readings scatter.
Possible outcomes: label 1 (active), label 0 (inactive)

{"Smiles Repr": "COc1ccc([N+](=O)[O-])cc1O", "Answer Label": "label 0"}
{"Smiles Repr": "CCN(CC)C(=S)[S-].CCN(CC)C(=S)[S-].[Zn+2]", "Answer Label": "label 1"}
{"Smiles Repr": "O=C/C(Cl)=C(/Cl)C(=O)O", "Answer Label": "label 1"}
{"Smiles Repr": "CCC(C)(C)C(=O)OC1=C(c2ccc(Cl)cc2Cl)C(=O)OC12CCCCC2", "Answer Label": "label 0"}
{"Smiles Repr": "CCS(=O)(=O)c1cccnc1S(=O)(=O)NC(=O)Nc1nc(OC)cc(OC)n1", "Answer Label": "label 0"}
{"Smiles Repr": "CC1(C)[C@H](C(=O)O[C@H](C#N)c2cccc(Oc3ccccc3)c2)[C@@H]1/C=C(\\Cl)C(F)(F)F", "Answer Label": "label 0"}

* * *

assay: qHTS assay to identify small molecule antagonists of the retinoid acid receptor (RAR) signaling pathway - cell viability counter screen (AID 1159551); details: C3RL4 cells viability, ATP luminescence (CellTiter-Glo), 6 h; series mostly up to 92.4 µM; further: nearly all actives have a fitted effect of over 35% in size
Records with an inconclusive call do not appear. Calls of active or inactive are those of the source. The call rests on the fitted dose curve; in most records, active means well fitted cell-killing curve with a large enough effect in the repeat runs; inconclusive means weak or mixed curves, or effect the other way; inactive means flat fitted curve, though single readings scatter.
Possible outcomes: true for active, false for inactive

{"Compound": "c1ccc2c(c1)[nH]c1cnccc12", "Answer Label": "false"}
{"Compound": "CC(C)[C@H](C(=O)OC(C#N)c1cccc(Oc2ccccc2)c1)c1ccc(OC(F)F)cc1 (stereo not given in full)", "Answer Label": "false"}
{"Compound": "C[C@]12CC[C@@H]3c4ccc(OC(=O)N(CCCl)CCCl)cc4CC[C@H]3[C@@H]1CC[C@@H]2O", "Answer Label": "false"}
{"Compound": "CC(=[OH+])/C=C(/C)[O-].CC(=[OH+])/C=C(\\C)[O-].CC(=[OH+])/C=C(\\C)[O-].[Fe]", "Answer Label": "false"}
{"Compound": "CCCCCCCCCC[N+](C)(C)CCCCCCCCCC", "Answer Label": "true"}
{"Compound": "BrCC(Br)c1ccccc1 (stereo not given)", "Answer Label": "false"}
{"Compound": "O=C/C(Cl)=C(/Cl)C(=O)O", "Answer Label": "false"}
{"Compound": "CN(C)CCc1c[nH]c2cccc(O)c12", "Answer Label": "false"}
{"Compound": "N#C/C=C/C#N", "Answer Label": "false"}
{"Compound": "O=C1NCN(c2ccccc2)C12CCN(CC1COc3ccccc3O1)CC2 (stereo not given)", "Answer Label": "false"}
{"Compound": "CC1(C)[C@H](C(=O)O[C@H](C#N)c2cccc(Oc3ccccc3)c2)[C@@H]1/C=C(\\Cl)C(F)(F)F", "Answer Label": "false"}
{"Compound": "CCCCCCCCCCBr", "Answer Label": "false"}
{"Compound": "COc1ccc(/C(=C/C(=O)N2CCOCC2)c2ccc(Cl)cc2)cc1OC", "Answer Label": "false"}
{"Compound": "CC(C)Oc1cccc(NC(=O)c2ccccc2C(F)(F)F)c1", "Answer Label": "false"}
{"Compound": "ClC1=C(Cl)[C@]2(Cl)[C@@H]3[C@@H](Cl)[C@@H](Cl)C[C@@H]3[C@@]1(Cl)C2(Cl)Cl", "Answer Label": "false"}
{"Compound": "O=C(O)C1C2CCC(O2)C1C(=O)O (stereo not given)", "Answer Label": "false"}
{"Compound": "C[C@]12Cc3nonc3C[C@@H]1CC[C@@H]1[C@@H]2CC[C@@]2(C)[C@H]1CC[C@]2(C)O", "Answer Label": "false"}
{"Compound": "CCOP(=S)(OCC)SCS(=O)(=O)CC", "Answer Label": "false"}
{"Compound": "COC[C@H](C)N(C(=O)CCl)c1c(C)csc1C", "Answer Label": "false"}
{"Compound": "CC(C)(c1ccc(O)c(-c2ccccc2)c1)c1ccc(O)c(-c2ccccc2)c1", "Answer Label": "true"}
{"Compound": "NNC(=O)c1ccccc1", "Answer Label": "false"}
{"Compound": "COS(=O)(=O)c1ccc(C)cc1", "Answer Label": "false"}
{"Compound": "CC(O)C#N (stereo not given)", "Answer Label": "false"}
{"Compound": "[Cd+2].[Cl-].[Cl-]", "Answer Label": "false"}
{"Compound": "CN(C)C1CSSSC1", "Answer Label": "false"}

Values from PubChem BioAssay (Tox21)
